Assay: small-molecule microarray binders of probe aDKK1, primary screen, biochemical, biotinylated probe, 635/667 nm fluorescence (AID 1099);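 also: score merges 667nm spot fluorescence with signal to noise across triplicate slides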
Details: higher = more signal
Please enter met where composite z-score is greater than or equal to -0.04, and not met where it is lower.

compound	label
C#C[C@@H](CC)O[Si](C#Cc1ccc(Oc2ccccc2)cc1)(C(C)C)C(C)C	not met
CCN1C(=O)[C@H]2[C@H]3[C@H](O)[C@H](O)CC(=NOC[C@@H](C)[C@H](OCc4ccccc4)C(C)C)[C@@H]3CC[C@H]2C1=O	met
O=C1[C@H]2[C@H]3[C@H](O)[C@H](O)CC(=NO[C@@H]4O[C@H](CO)[C@@H](O)[C@H](O)[C@H]4O)[C@@H]3CC[C@H]2C(=O)N1c1ccc(F)cc1F	not met
Cn1c(=O)n2n(c1=O)[C@H]1[C@H](O)[C@@H]3O[C@@H]3C(=NOC[C@@H](O)COCc3ccco3)[C@H]1CC2	not met
C=CC[C@@H]1C=C[C@H](ON=C(C)CCN2CCc3nc(CC)c(CC)cc3C2)[C@@H](CO)O1	met
C=CC[C@]1(C(=O)NCc2ccccc2)N=C(c2ccc(OCCCO)cc2)O[C@H]1c1ccccc1	met
CN(C)CCCNC(=O)[C@@H]1c2ccccc2C(=O)N(Cc2cc(F)cc(C(F)(F)F)c2)[C@H]1c1ccc(CO)cc1	not met
CC1(C)OCC(C(O)C2=CCCCC2=O)CO1 (stereo unspecified)	not met
CCc1cc2c(nc1CC)CCN(CCC(C)=NOC[C@@H](O)COCc1ccco1)C2	met
C=C(/C(=C/C[C@@H](OC(=O)c1ccncc1)c1ccc(OCCO)cc1)c1cnc2ccccc2c1)C(C)C	not met
CO[C@H]1COC(=O)CC=C[C@H](C)[C@@H](NS(=O)(=O)c2ccc(C)cc2)COC(=O)CC=C[C@@H]1C	not met

###

Test: cell viability in Huh7 cells, primary screen, cytotoxicity control for HCV replication inhibitor project, CellTiter-Glo luminescence, basal, 48 h (AID 1143);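 also: Huh7 hepatoma cells carrying a hepatitis C replication reporter with no stimulus; test concentration not given here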
Conditions: Huh7 HCV replicon, higher = more signal, called active from +8 up or from −8 down
The source made the active and inactive calls.

compound	z-score
C/C=C\[C@@H](NCc1ccccc1Br)[C@@H](O)Cc1ccccc1	-5.43 (inactive)
N#Cc1ccc(NN2C(C(O)c3cccc4ccccc34)C=CC3C(=O)N(c4ccccc4)C(=O)C32)cc1 (centres undefined)	0.128 (inactive)
CO[C@@H]1COC(=O)CC=C[C@@H](C)[C@@H]2C=C[C@@H](O)[C@@H](COC(=O)CC=C[C@H]1C)O2	-0.972 (inactive)
CN1C(=O)C2C(C1=O)C1C=C(CCCO)C2C(c2ccc(CN3CCCC3)cc2)N1C (centres undefined)	-0.202 (inactive)

###

Target: Pro-neuregulin-1, membrane-bound isoform (Homo sapiens) (UniProt Q02297)
Sequence (Q02297 whole entry, looked up, canonical isoform): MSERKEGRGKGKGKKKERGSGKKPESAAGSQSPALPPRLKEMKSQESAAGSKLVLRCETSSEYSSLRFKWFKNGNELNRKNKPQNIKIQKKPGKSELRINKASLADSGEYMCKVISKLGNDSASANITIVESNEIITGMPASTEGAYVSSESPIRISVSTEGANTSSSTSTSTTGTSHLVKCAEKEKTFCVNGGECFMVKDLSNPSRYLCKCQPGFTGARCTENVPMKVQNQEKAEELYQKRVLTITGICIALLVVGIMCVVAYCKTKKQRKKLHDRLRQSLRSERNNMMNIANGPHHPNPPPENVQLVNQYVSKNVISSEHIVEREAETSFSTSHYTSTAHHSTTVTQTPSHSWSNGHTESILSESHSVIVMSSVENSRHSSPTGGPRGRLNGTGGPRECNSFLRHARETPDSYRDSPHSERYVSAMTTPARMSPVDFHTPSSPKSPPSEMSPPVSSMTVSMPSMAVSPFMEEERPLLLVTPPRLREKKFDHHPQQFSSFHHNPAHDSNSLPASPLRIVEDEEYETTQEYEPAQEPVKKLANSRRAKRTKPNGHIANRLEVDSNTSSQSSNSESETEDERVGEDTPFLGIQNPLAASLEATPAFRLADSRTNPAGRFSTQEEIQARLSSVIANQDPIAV
Experiment: NRG1 binders on small-molecule microarrays, primary screen, psychiatric disease protein project, biochemical, small-molecule microarray, fluorescence 635/667 (AID 1075);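 also: score combines 667 nm spot fluorescence with signal to noise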
Details: NRG1 binding, 635 nm fluorescence, higher = more signal
endpoint: composite z-score

compound	measured-result
COC(=O)[C@H](C)NC(=O)CCC1CC(OC(=O)NCc2cccc3ccccc23)CC2(CCCC(COC(=O)NCCc3ccc(Cl)cc3)O2)O1 (stereo partly specified)	0.567
CC1CC/C=C\[C@H]2OC34C=CCN(Cn5nnc6ccccc65)C(=O)[C@H]3N(CCO)C(=O)[C@@H]4C2C(=O)O1 (stereo partly specified)	1.52
O=C1[C@H]2[C@H]3[C@H](O)[C@H](O)CC(=NOC[C@@H](O)COCc4ccco4)[C@H]3CC[C@H]2C(=O)N1Cc1ccc2c(c1)OCO2	-0.621
C=C(/C(=C/C[C@H](OC(=O)c1ccncc1)c1ccc(OCCO)cc1)c1cnc2ccccc2c1)C(C)C	0.7
COCCOC(=O)N1C(=O)[C@@]2(c3cc(C#Cc4ccc(OC)cc4)ccc31)[C@H](C(=O)N1CCN(c3ncccn3)CC1)[C@H]1C(=O)O[C@H](c3ccccc3)[C@H](c3ccccc3)N1[C@@H]2c1ccc(OCCO)cc1	0.458
O=C1[C@H]2[C@H]3[C@H](O)[C@H](O)CC(=NOC[C@@H](O)COCc4ccco4)[C@H]3CC[C@H]2C(=O)N1c1cccc(Oc2ccccc2)c1	0.141
O=C1[C@H]2[C@H]3[C@H](O)[C@H](O)CC(=NOCc4ccccc4)[C@@H]3CC[C@H]2C(=O)N1C1CCCCC1	1.1
CN(C)CCCNC(=O)[C@@H]1c2ccccc2C(=O)N(Cc2ccccc2)[C@H]1c1ccc(CO)cc1	-0.0367
O=C1[C@H]2[C@H]3[C@H](O)[C@H](O)CC(=NOCc4ccccc4)[C@H]3CC[C@H]2C(=O)N1C[C@@H]1CCCO1	0.512
COC(=O)CC1OC1[C@H](C)[C@@H](OC)C(C)C (stereo partly specified)	-0.407
CO[C@@H]1COC(=O)CCC[C@@H](C)[C@H](OC)COC(=O)[C@H](Cc2ccccc2)NC(=O)CC=C[C@H]1C	-0.87
C=CC[C@@H]1C=C[C@H](ON=Cc2ccc(C(=O)N3[C@H](c4ccc(C)cc4)[C@@H](C)CC[C@H]3C(=O)OC)cc2)[C@@H](CO)O1	0.0373
Cc1cc2c(nc1C)CCCN2CC(O)CN1CCN(C)CC1 (stereo unspecified)	0.462
COc1ccc(O[C@H]2C=C[C@@H](c3ccccc3)O[C@@H]2COC(=O)CCC(C)=NOC(C)CN2CCCCc3nc(C)c(C)cc32)cc1 (stereo partly specified)	-0.0663
CCCCCN1CC=CC23O[C@@H]4C=CCOC(=O)[C@@H]4[C@H]2C(=O)N(C(CO)C(C)C)[C@@H]3C1=O (stereo partly specified)	-0.694
COC(=O)[C@H]1COC(c2ccc(OCCCO)cc2)=N1	-0.0556
